- Target: human GLP-1 receptor (GLP1R) (human, UniProt P43220)
- Measurement Protocol: cell-based or functional assay
*1 amine or outer side, *2 acyl side, *3 side chain or, on linkers, in order; H or OH if unused. Bridges are numbered along the chain shown (N, C = ends). Where no end group is shown, it is not given here. [ ]: non-standard residue; d: D form. γGlu = O=C(O)[C@H](CCC(=O)[*:2])N[*:1]; Met(O2) = CS(=O)(=O)CC[C@H](N)C(=O)O; Nle = CCCC[C@H](N)C(=O)O; Ac4c = NC1(C(=O)O)CCC1; Aib = CC(C)(N)C(=O)O
Note to self: values exactly at 0.06 nM are 1. So GLP1R EC50 human (nM), cAMP activity assay at or above 0.06 nM is 1, below is 0.

Previously resolved entries follow.
H[Aib]QGTFTSDKSKYLD[Ac4c]RAAQDFVKWL[Met(O2)]ETK(γGlu)-NH2 (lactam 24-28; not fully specified (residue 10)) [TP861] | 0
H[Aib]QGTFTSDKSKYLD[Ac4c]RAAKDFVEWL[Met(O2)]DTK(γGlu)-NH2 (lactam 20-24; not fully specified (residue 10)) [TP859] | 0
H[dS]QGTFTSDKSKYLDAKAAQEFVQWLLDT-NH2 (lactam 17-21; not fully specified (residue 10); printed as HsQGTFTSDK(γEγEC16)SKYLDAK*AAQE*FVQWLLDT-NH2) [TP710] | 1
H[Aib]QGTFTSDKSKYLDKRAAEDFVQWL[Met(O2)]DTK(γGlu)-NH2 (lactam 16-20; not fully specified (residue 10); printed as HUQGTFTSDK(γEγEC16)SKYLDK*RAAE*DFVQWL2DTKγE-NH2) [TP844] | 0
H[Aib]QGTFTSDKSKYLDKRAAEDFVQWL[Nle]DT-NH2 (lactam 16-20; not fully specified (residue 10); printed as HUQGTFTSDK(γEγEC16)SKYLDK*RAAE*DFVQWL-Nle-DT-NH2) [TP836] | 1

Tell me whether GLP1R EC50 human (nM), cAMP activity assay is at least 0.06 nM here: H[Aib]QGTFTSDKSKYLD[Aib]RAAQDFVKWL[Met(O2)]ETK(γGlu)-NH2 (lactam 24-28; not fully specified (residue 10); printed as HUQGTFTSDK(γEγEC16)SKYLDURAAQDFVK*WL2E*TKγE-NH2) [TP850]
0

Say whether H[dS]QGTFTSDKSKYLDKRAAEDFVQWLLDT-NH2 (lactam 16-20; not fully specified (residue 10); printed as HsQGTFTSDK(γEγEC16)SKYLDK*RAAE*DFVQWLLDT-NH2) [Peptide SEQ ID No. 10 (TP706)] shows GLP1R EC50 human (nM), cAMP activity assay of 0.06 nM or more.
1

Ref: patent US20230285514A1
